# test-target: Nuclear receptor subfamily 1 group I member 2 (Rattus norvegicus) (UniProt Q9R1A7)
# Sequence (Q9R1A7 whole entry, looked up): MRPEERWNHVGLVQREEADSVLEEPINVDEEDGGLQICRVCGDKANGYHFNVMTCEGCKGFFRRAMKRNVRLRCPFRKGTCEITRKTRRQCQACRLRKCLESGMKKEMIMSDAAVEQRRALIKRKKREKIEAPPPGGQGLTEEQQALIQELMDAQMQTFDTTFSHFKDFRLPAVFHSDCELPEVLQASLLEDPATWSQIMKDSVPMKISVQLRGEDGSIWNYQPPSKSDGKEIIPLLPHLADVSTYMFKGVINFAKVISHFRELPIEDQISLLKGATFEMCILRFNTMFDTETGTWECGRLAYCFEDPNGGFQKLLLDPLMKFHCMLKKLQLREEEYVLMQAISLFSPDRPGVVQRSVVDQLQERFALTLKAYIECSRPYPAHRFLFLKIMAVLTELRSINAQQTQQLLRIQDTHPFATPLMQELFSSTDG
# procedure-text: qHTS assay for small molecule activators of the rat pregnane X receptor (rPXR) signaling pathway (AID 651751); also: 0% is about no effect
# details: rPXR reporter cells, luciferase (One-Glo), 24 h
For each of the molecules below, state its max response.
Give bare numbers, in %.

Would you please look over these solved cases?
| smiles-input | max response [%] |
| --- | --- |
| Cc1c(N)cccc1Cl | 7.66 |
| CC(C)S | -6.45 |

Hi! Can you tell me max response for each of these molecules?
1. CCc1ccc(C(c2ccc(CC)cc2)C(Cl)Cl)cc1
2. S=C(NC1CCCCC1)NC1CCCCC1
3. CCCCNCC

[1.82, 8.83, 1.14]

Batch of 3 molecules: report max response for each.
1. c1ccc(COCc2ccccc2)cc1
2. c1ccc2ncccc2c1
3. C=C(C#N)C(=O)OCC

1. 4.39
2. 5.68
3. -1.42

Each molecule below has a recorded value; state its max response.
1. CC(C)COC(=O)COc1cc(Cl)c(Cl)cc1Cl
2. Brc1cc(Br)c(Oc2cc(Br)c(Br)cc2Br)cc1Br
3. Nc1cnn([C@@H]2O[C@H](CO)[C@@H](O)[C@H]2O)c(=O)n1
4. c1ccncc1
5. Cc1ccc2ccc3cccc4ccc1c2c34

[-2.47, -2.15, 3.54, 3.74, 10]

For each entry beneath this line, provide reported max response.
1. O=C(Cl)c1ccc([N+](=O)[O-])cc1
2. O=[N+]([O-])c1cccc(I)c1

-6.29
-1.98

====

# procedure-text: Stat Signaling Pathway (AID 446);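 also: ME-180 cervical cancer cells given 40 pM IL-6 alongside compound; SIE-controlled beta-lactamase reporter measured as 460/530 nm FRET emission ratio; % is scaled to controls: 0 for no effect and ±100 for the full control effect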
# details: ME-180 SIE beta-lactamase reporter, IL-6 stimulated, 5 h; at 7.69 µM (top of the series) unless noted
Inconclusive results are not listed. Calls of active or inactive are those of the source. Calls follow the shape of the dose curve; as a rule, active = well fitted curve in either direction with a large enough effect (not every such curve was filed as active); inconclusive = small, poorly fitted or top-dose-only effect, or another doubt; inactive = flat fitted curve, though single readings scatter.
readout-label: activity, negative = inhibition

| smiles-input | activity, negative = inhibition |
| --- | --- |
| CN(C)c1ccc(/C=N\NC(=O)c2cnc3ccccc3c2)cc1 | -7.11% (inactive) |
| CC1(C)OC[C@@H]2O[C@H](n3cnc4c(N)nc(Cl)nc43)[C@@H](OS(C)(=O)=O)[C@@H]2O1 | -0.333% (inactive) |
| CN(/N=C\c1ccccc1O)c1ccc2ccccc2n1 | 1.98% (inactive) |
| O=c1c(-c2ccccc2)nc2cnc(Oc3ccccc3)nc2n1C1CC1 | -5.21% (inactive) |
| Cc1ccc(CN2CCN(Cc3ccc(C)o3)[C@@H](C)C2)o1 | 1.61% (inactive) |
| C[C@@H](CNC(N)=O)NC(N)=O | 5.82% (inactive) |
| N=C(N)SCc1nc(-c2ccc(Cl)cc2)no1 | 17.8% (inactive) |
| Nc1[nH]c(=O)nc2c1ncn2[C@H]1O[C@@H](CO)[C@@H](O)[C@@H]1O | 17.5% (inactive) |
| NC(=O)c1csc(-c2ccc(CO)o2)n1 | 13.2% (inactive) |
| O=C(O)c1cccc(S(=O)(=O)NCCO)c1 | -2.13% (inactive) |

Which activity, negative = inhibition is listed for OC[C@@H]1NC[C@@H](O)[C@@H](O)[C@H]1O ?
-28.2% [at 38 µM] (inactive)

====

# procedure-text: Stat Signaling Pathway (AID 446);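 also: ME-180 cervical cancer cells given 40 pM IL-6 alongside compound; SIE-controlled beta-lactamase reporter measured as 460/530 nm FRET emission ratio; % is scaled to controls: 0 for no effect and ±100 for the full control effect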
# details: ME-180 SIE beta-lactamase reporter, IL-6 stimulated, 5 h; at 7.69 µM (top of the series) unless noted
Results filed as inconclusive are left out. Active and inactive are the calls of the source. The call rests on the fitted dose curve; in most records, active means well fitted curve in either direction with a large enough effect (not every such curve was filed as active); inconclusive means small, poorly fitted or top-dose-only effect, or another doubt; inactive means flat fitted curve, though single readings scatter.
readout-label: activity, negative = inhibition

| smiles-input | activity, negative = inhibition |
| --- | --- |
| c1ccc(SCCc2ccncc2)cc1 | -2.72% (inactive) |

Provide activity, negative = inhibition values for the following items, in order.
1. Fc1cccc(CSc2ncnc3c2ncn3[C@H]2CCCS2)c1
2. NC(=O)N[C@H](CC(=O)O)C(=O)O
3. CCn1c(CCCc2nc3c([nH]2)c(=O)n(C)c(=O)n3C)nc2c1c(=O)n(C)c(=O)n2C
4. COc1ccc(CN[C@H](C)C(=O)O)cc1
5. C/C(CC/C(C)=N/O)=N/O
6. OCCN(CO)CO
7. OCCSCc1ccccc1
8. CCCCSCc1nc2nc(Cl)c(Cl)nc2[nH]1

1: 3.04% (inactive); 2: -0.625% (inactive); 3: 1.77% (inactive); 4: 2.1% (inactive); 5: -4.99% (inactive); 6: 7.15% (inactive); 7: 4.23% (inactive); 8: -21.2% (inactive)

For each of the items listed, what is its activity, negative = inhibition?
1. Clc1ccc(CSC2=NCCN2)cc1Cl
2. CNc1ncnc2c1ncn2[C@@H]1O[C@@H](CO)[C@H](O)[C@@H]1O
3. COc1ccc2c3c(ccc2c1)N[C@H](C(=O)O)CC3
4. N[C@@H](CSc1nc2ccccn2c1[N+](=O)[O-])C(=O)O

1. -8% (inactive)
2. -6.86% [at 38 µM] (inactive)
3. -6.67% (inactive)
4. -1.41% (inactive)

====

# procedure-text: Stat Signaling Pathway (AID 446);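 also: ME-180 cervical cancer cells given 40 pM IL-6 alongside compound; SIE-controlled beta-lactamase reporter measured as 460/530 nm FRET emission ratio; % is scaled to controls: 0 for no effect and ±100 for the full control effect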
# details: ME-180 SIE beta-lactamase reporter, IL-6 stimulated, 5 h; at 7.69 µM (top of the series) unless noted
Results filed as inconclusive are left out. Active and inactive are the calls of the source. Calls follow the shape of the dose curve; as a rule, active = well fitted curve in either direction with a large enough effect (not every such curve was filed as active); inconclusive = small, poorly fitted or top-dose-only effect, or another doubt; inactive = flat fitted curve, though single readings scatter.
readout-label: activity, negative = inhibition

Consider the worked cases shown below.
| compound | activity, negative = inhibition |
| --- | --- |
| O=C(SCc1cccc2ccccc12)c1ccc(Cl)cc1 | 7% (inactive) |
| C[C@H]1[C@H](C)CC[C@]2(C(=O)O)CC[C@]3(C)C(=CC[C@@H]4[C@]5(C)C[C@H](O)[C@@H](O)[C@@](C)(CO)[C@@H]5[C@H](O)C[C@@]43C)[C@H]12 | 8.93% (inactive) |
| C#CCOC(=O)[C@H](N)CC(N)=O | -0.998% (inactive) |
| CN(C)CCCNc1cc(O)c2c(c1O)C(=O)c1ccccc1C2=O | 26% (inactive) |
| COc1ccc(CC[N@+]2(C)COc3cc4oc(=O)cc(C)c4cc3C2)cc1OC | 5.96% (inactive) |

For each of the compounds below, note its activity, negative = inhibition.
1. C[N@+]1(CCC(=O)c2ccccc2)CC[C@H]2CC[C@H](C2)C1
2. CC(=O)CSCc1ccccn1
3. c1cncc(CNCc2cccnc2)c1
4. Clc1ccccc1NN(Cc1ccccn1)c1ccccc1Cl
5. N=c1sc2ccccc2n1CCS (tested in a mixture with another compound)
6. O=C(O)CCc1nc(-c2ccccc2-n2cccc2)no1
7. N[C@@H](CCCCO)C(=O)O
8. Clc1ccc(Cl)c(Nc2ccnc(SCc3ccccc3)n2)c1

["1.34% (inactive)", "-2.34% (inactive)", "12.4% (inactive)", "-11% (inactive)", "-20% (inactive)", "-0.807% (inactive)", "-3.96% (inactive)", "0.24% (inactive)"]

====

Can you tell me activity, negative = inhibition for the items I'm about to list?
# procedure-text: Stat Signaling Pathway (AID 446);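 also: ME-180 cervical cancer cells given 40 pM IL-6 alongside compound; SIE-controlled beta-lactamase reporter measured as 460/530 nm FRET emission ratio; % is scaled to controls: 0 for no effect and ±100 for the full control effect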
# details: ME-180 (cervical carcinoma) SIE beta-lactamase reporter, IL-6 stimulated, 5 h; at 7.69 µM (top of the series) unless noted
Results filed as inconclusive are left out.
One number for each entry, in %.

# example entries with known answers
| compound | data-value |
| --- | --- |
| CN(C)c1ccc2nc3c(C(=O)O)cc(=O)c(O)c-3oc2c1 | -14.8 |
| CO[C@@H]1/C=C\O[C@]2(C)Oc3c(C)c(O)c4c(O)c(c(CN5CCN(C)CC5)c(O)c4c3C2=O)NC(=O)/C(C)=C\C=C[C@@H](C)[C@@H](O)[C@H](C)[C@@H](O)[C@H](C)[C@H](OC(C)=O)[C@@H]1C | -6.61 |
| CC1CCC(O)([C@](C)(C(=O)O)c2ccccc2)CC1 (some centres undefined) | -1.34 |
| N[C@H]1[C@@H](C(=O)O)[C@H]2C=C[C@H]1C2 | 7.88 |
| Nc1ncnc2nc(-c3ccc(C[P+](c4ccccc4)(c4ccccc4)c4ccccc4)cc3)[nH]c12 | 1.06 |

# batch: return activity, negative = inhibition for each of the 4 compounds below
1. Cc1ccc(N(Cc2ccccc2)Cc2ccccc2)cc1
2. O=C(O)[C@H]([C@H]1NCCS1)N1Cc2ccccc2C1
3. Cc1cc(Cc2c(C)c(C)c(Cc3cc(C)cc(C(C)(C)C)c3O)c(C)c2C)c(O)c(C(C)(C)C)c1
4. NC(N)=NC(N)=Nc1c(F)c(F)c(F)c(F)c1F

1: 3.16; 2: 2.46; 3: 6.62; 4: 3

====

Record form. Attribute: max response. Fill in for each entry.
# procedure-text: qHTS assay for small molecule antagonists of retinoid X receptor alpha signaling (AID 588546)
# details: HEK293T RXRa-UAS-bla, beta-lactamase ratio, antagonist mode; measured here: W530 green channel, cytotoxicity proxy
Results filed as inconclusive are left out.
Give bare numbers, in %.

These recorded examples may help you get a feel for the data.
| compound | unit-name | max response |
| --- | --- | --- |
| O=c1[nH]ncc2ccccc12 | % | -5.72 |
| Cc1cc2nc(N)sc2cc1C | % | 0.388 |
| c1cc2c3c(c1)ccc1cccc(c13)C2 | % | -1.55 |
| c1c[nH]cn1 | % | -8.47 |
| Nc1ccc(-c2ccc(N)c(O)c2)cc1O | % | -41.6 |

# return max response for each item in the list
1. CC(=O)c1ccc(Cl)c(Cl)c1Cl
2. O=[N+]([O-])c1ccc(F)cc1F
3. OC1CCCCC1
4. Clc1nc2ccccc2nc1Cl
5. Nc1cnn([C@@H]2O[C@H](CO)[C@@H](O)[C@H]2O)c(=O)n1
6. C=CC1CO1 (centres undefined)

[-2.76, -4.17, 10.1, -14.8, 8.26, -2.46]

For every item below, please supply its max response.
1. c1ccc(SCCSc2ccccc2)cc1
2. C=Cc1cccc(C)c1

[0.714, -7.34]

# return max response for each item in the list
1. O=CC(=O)c1ccccc1
2. CCCCCCN

1. -7.19
2. -7.66

Hey, can you go through the list below and give me max response for every item?
1. CC(C)S
2. Cc1ccccc1OCC1CO1 (centres undefined)
3. O=[N+]([O-])c1ccccc1Nc1ccccc1
4. Oc1ccc(O)c2c(O)cccc12
5. O=C(O)/C=C/c1ccc(/C=C/C(=O)O)cc1
6. CC(/C=C/C=C(C)/C=C/C(=O)O)=C\C=C\C=C(C)\C=C\C=C(C)\C=C\C(=O)O
7. C1CCCNCC1
8. S=C(NC1CCCCC1)NC1CCCCC1

1: 0.793; 2: -1.65; 3: -9.17; 4: -12.8; 5: -0.222; 6: -20; 7: -4.82; 8: -2.99

meta.source: PubChem BioAssay (NCATS)
